Give IC50 for every item shown.
studyTarget: recombinant human secreted phospholipase A2 (Homo sapiens)
Sequence (P14555 21-144): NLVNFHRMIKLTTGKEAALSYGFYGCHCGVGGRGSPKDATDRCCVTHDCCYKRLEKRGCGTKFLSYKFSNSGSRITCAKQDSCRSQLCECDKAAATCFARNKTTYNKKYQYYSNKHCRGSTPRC
runDescription: chromogenic assay of recombinant human secreted phospholipase A2 inhibition
Format: biochemical
assayConditions: diheptanoyl thio-PC substrate, pH 7.5, 40° C. 30 minutes, absorbance at 405 nanometers, triplicate
Where a name gives a salt, the structure may show the parent alone.
Please state the figure in µM; there is no need to write the unit.

# lookup: IC50 of NC(=O)c1cccc2c1c1c(OCC(=O)O)c3c(cc1n2Cc1ccccc1)CCCC3 [Example 2, sodium salt]
410

Same question for NC(=O)c1cccc2c1c1c(OCC(=O)O)c3ccccc3cc1n2Cc1ccccc1 [Example 1, sodium salt] please.
38.6
